System: HOP-92 NSCLC
Experiment: NCI tumour cell line growth inhibition, 48 h
Collected TGI values appear next to each entry.
value-kind: TGI

>  <compound>
O=c1[nH]c(Nc2cccc(CC(F)(F)F)c2)nc2nc[nH]c12

>  <reported>
> 100 µM

$$$$
>  <compound>
CCCCCCc1cc2cc(-c3csc(CC#N)n3)c(=O)oc2cc1O

>  <reported>
69 µM

$$$$
>  <compound>
c1ccc(-c2nc(-c3ccccc3SSc3ccccc3-c3nc(-c4ccccc4)nn3-c3ccccc3)n(-c3ccccc3)n2)cc1

>  <reported>
> 100 µM

$$$$
>  <compound>
Cc1ccc(Cl)c2c(N=Nc3ccccc3[N+](=O)[O-])c(O)[nH]c12

>  <reported>
> 100 µM

$$$$
>  <compound>
OC1CSSC1Cn1cnc2c(Nc3ccc(OCc4cccc(F)c4)c(Cl)c3)ncnc21 (stereo not given)

>  <reported>
23 µM

$$$$
>  <compound>
Nc1ccccc1S(=O)(=O)N(CC(=O)O)c1ccccc1

>  <reported>
> 100 µM

$$$$
>  <compound>
COc1ccccc1N1C(=O)C2c3[nH]c4ccccc4c3C3CCC(C(C)(C)C)CC3C2C1=O (stereo not given)

>  <reported>
> 100 µM

$$$$
>  <compound>
Nn1c(-c2ccccc2)nn(C(=O)c2ccccc2)c1=O

>  <reported>
> 100 µM

$$$$
>  <compound>
O=C1CSC(c2ccc(Cl)cc2)N1c1ccc(Oc2ccc(Cl)cc2)c(Cl)c1 (stereo not given)

>  <reported>
30.3 µM

$$$$
>  <compound>
COc1ccc(N/N=C2\CCOc3ccc(C)cc3C2=O)cc1

>  <reported>
> 100 µM

$$$$
>  <compound>
CN1CCCCC1CCN1c2ccccc2Sc2ccc(Cl)cc21 (stereo not given)

>  <reported>
5.18 µM

$$$$
>  <compound>
CN(C)C(=S)N=C(Nc1ccccc1)Nc1ccccc1

>  <reported>
> 100 µM

$$$$
>  <compound>
COc1cc(Br)cc2cc(-c3cn4ccsc4n3)c(=O)oc12

>  <reported>
71.9 µM

$$$$
>  <compound>
CN(C)c1ccc(/C=C\C2=[N+](C)c3ccccc3C2(C)C)cc1

>  <reported>
> 22.8 µM

$$$$
>  <compound>
Nc1nc(-n2c(-c3ccccc3)nc3c(Br)cc(Br)cc3c2=O)nnc1-c1cccc(Cl)c1Cl

>  <reported>
> 100 µM

$$$$
>  <compound>
Cc1nc2sccn2c1-c1csc(Nc2ccccc2Cl)n1

>  <reported>
7.08 µM

$$$$
>  <compound>
CC(=O)O[C@@H]1[C@H](C(C)C)[C@@H](OC(C)=O)C/C(C)=C/CC[C@]2(C)O[C@@H]12

>  <reported>
> 100 µM

$$$$
>  <compound>
Cc1cnc(NCCCN(C)C)c2c1[nH]c1ccc3cc(O)ccc3c12

>  <reported>
1.31 µM

$$$$
>  <compound>
COc1cc2c(c3oc4c(O)cccc4c(=O)c13)CC(C(C)(O)CO)O2 (stereo not given)

>  <reported>
> 100 µM

$$$$
>  <compound>
Clc1ccccc1C(SCc1ccccc1)SCc1ccccc1

>  <reported>
> 100 µM

$$$$

###

Tested on: HCT-116 colon
Assay: NCI tumour cell line growth inhibition, 48 h
value-kind: TGI

>  <compound>
Cc1ccnc2c1ccc1c(C)ccnc12

>  <value-kind>
TGI

>  <reported>
13 µM

$$$$
>  <compound>
Cc1ccc(Cl)c2[nH]c(-c3ccccc3)cc(=O)c12

>  <value-kind>
TGI

>  <reported>
> 100 µM

$$$$
>  <compound>
C[C@@H]1CC[C@]2(C(=O)O)CC[C@]3(C)C(=CC[C@@H]4[C@@]5(C)CC[C@H](O)C(C)(C)[C@@H]5CC[C@]43C)[C@@H]2[C@]1(C)O

>  <value-kind>
TGI

>  <reported>
24.6 µM

$$$$
>  <compound>
CO/C(=N\N=C\c1ccc(C(F)(F)F)cc1)c1ccncc1

>  <value-kind>
TGI

>  <reported>
> 10 µM

$$$$
>  <compound>
C=C1C(=O)O[C@@H]2C(=O)[C@@H](C)CCC/C(C)=C/CC[C@@]3(C)O[C@@H]3C[C@@H]12

>  <value-kind>
TGI

>  <reported>
96.1 µM

$$$$
>  <compound>
CC1(C)OC(=O)N(c2ccccc2)C12C=Cc1cc([N+](=O)[O-])cc([N+](=O)[O-])c1O2 (centres undefined)

>  <value-kind>
TGI

>  <reported>
> 100 µM

$$$$
>  <compound>
CCOC(=O)CSc1c(C(=O)OCC)c(=O)n(-c2ccccc2)c(=S)n1-c1ccccc1

>  <value-kind>
TGI

>  <reported>
> 100 µM

$$$$
>  <compound>
C1=C2/CC[C@H](Sc3ccccc3)C2C2(CCCCC/1)OCCO2 (some centres undefined)

>  <value-kind>
TGI

>  <reported>
37.1 µM

$$$$
>  <compound>
Cc1ccsc1C(=S)Nc1ccc(Cl)c(/C=N/OC(C)(C)C)c1

>  <value-kind>
TGI

>  <reported>
> 100 µM

$$$$
>  <compound>
Cc1cc(NS(=O)(=O)c2ccc(Nc3c4ccccc4nc4c(C(=O)N5CCN(CCOS(C)(=O)=O)CC5)cccc34)cc2)no1

>  <value-kind>
TGI

>  <reported>
> 100 µM

$$$$
>  <compound>
OC1CSSC1Cn1cnc2c(Nc3ccc(OCc4cccc(F)c4)c(Cl)c3)ncnc21 (centres undefined)

>  <value-kind>
TGI

>  <reported>
3.84 µM

$$$$
>  <compound>
CCC(=O)[C@H](C)[C@@H](OC(=O)[C@H](C)CC)[C@H](C)[C@H]1OC(CC)=C(C)C(=O)[C@@H]1C

>  <value-kind>
TGI

>  <reported>
72.4 µM

$$$$
>  <compound>
C=CCN1C[C@H](C)N([C@H](c2ccc(C(=O)NC(CC)CC)cc2)c2cccc(OC)c2)C[C@H]1C

>  <value-kind>
TGI

>  <reported>
> 100 µM

$$$$
>  <compound>
COc1ccc2cc(NC(=O)N/N=C\c3ccc([N+](=O)[O-])cc3)ccc2c1

>  <value-kind>
TGI

>  <reported>
> 100 µM

$$$$
>  <compound>
CC(C)(C)OC(=O)N[C@H]1CCN(C2CCCCC2)C1=O

>  <value-kind>
TGI

>  <reported>
> 100 µM

$$$$
>  <compound>
NC(N)=NS(=O)(=O)c1ccc(Nc2c3ccccc3nc3c(C(=O)NCCO)cccc23)cc1

>  <value-kind>
TGI

>  <reported>
> 100 µM

$$$$
>  <compound>
COc1cc2cc(OC)c3cc4c(cc3c2c(OC)c1OC)OCO4

>  <value-kind>
TGI

>  <reported>
> 84.4 µM

$$$$
>  <compound>
O=C(CC(=O)c1cccc2ccccc12)C(=O)Nc1ccc(Cl)cc1

>  <value-kind>
TGI

>  <reported>
> 100 µM

$$$$
>  <compound>
CC(=O)O[C@@H]1[C@H](C(C)C)[C@@H](OC(C)=O)C/C(C)=C/CC[C@]2(C)O[C@@H]12

>  <value-kind>
TGI

>  <reported>
> 100 µM

$$$$
